target.entity: UniProtKB P21802
test.details: Biochemical FGFR2 Caliper assay
quantity.name: IC50

Consider the reported IC50 for these molecules:
| molecule | IC50 |
| --- | --- |
| C=C(C)C(=O)Nc1ccc(-c2c(-c3ccc(C(=O)N4CCCC4)cc3)c3c(N)nn(C)c(=O)c3n2C)cc1 [Example 878] | 0.1 to 0.25 µM |
| C=CC(=O)N[C@H]1C[C@H]1c1c(-c2ccc(C(=O)N3CCCC3)cc2)c2c(N)ncnc2n1C (single isomer, unassigned) [Example 975] | 1 to 100 µM |
| C=CC(=O)Nc1ccc(-c2[nH]c3ncnc(C)c3c2-c2cc3ccccc3s2)cc1 [Example 1256] | 1 to 100 µM |

# input molecule: C=C(C)C(=O)Nc1cc(Cl)c(-c2c(-c3ccc(Oc4nccc(C)n4)cc3)c3c(N)ncnc3n2C)cc1C [Example 1069] ; wanted: its IC50
0.25 to 1 µM

# input molecule: C#Cc1nc2ccc(-c3c(-c4ccc(Oc5nccc(C)n5)c(F)c4)c4c(N)ncnc4n3C)cc2n1C [Example 1395] ; wanted: its IC50
< 0.1 µM

# input molecule: C=C(C)C(=O)Nc1cccc(-c2[nH]c3ncnc(N)c3c2-c2ccc(C(=O)NCC3(F)COC3)cc2)c1 [Example 1079] ; wanted: its IC50
< 0.1 µM

# input molecule: C=C(C)C(=O)Nc1ccc(-c2c(-c3ccc(C(=O)N4CCCC4)cc3)c3c(N)n[nH]c(=O)c3n2C)cc1 [Example 879] ; wanted: its IC50
1 to 100 µM

# input molecule: C=CC(=O)N1CC=C(c2c(C3=CC[C@H](C(=O)N4CCCC4)CC3)c3c(N)ncnc3n2C)C1 (single isomer, unassigned) [Example 871] ; wanted: its IC50
0.25 to 1 µM

# input molecule: C#Cc1cc(OC)c(-c2c(-c3ccc(Oc4nccc(C)n4)c(F)c3)c3c(Cl)ncnc3n2C)cn1 [Example 1403] ; wanted: its IC50
< 0.1 µM

# input molecule: C=CC(=O)N1C[C@H](c2c(-c3ccc(Oc4cccc(C)n4)cc3)c3c(N)ncnc3n2C)[C@@H](O)C1 [Example 806] ; wanted: its IC50
< 0.1 µM

# input molecule: C=C(C)C(=O)Nc1ccc(-c2c(C3=CC[C@H](C(=O)N4CCc5ccccc54)CC3)c3c(N)ncnc3n2C)cc1 (single isomer, unassigned) [Example 986] ; wanted: its IC50
0.25 to 1 µM

# input molecule: Cc1ccnc(Oc2ccc(-c3c(-c4ccc(NC(=O)C5=CCOC5)cc4)n(C)c4ncnc(N)c34)cc2)n1 [Example 904] ; wanted: its IC50
1 to 100 µM

# input molecule: C=C(C)C(=O)Nc1ccc(-c2c(C3=CC[C@H](C(=O)N4CCC[C@@]45CCOC5)CC3)c3c(N)ncnc3n2C)cc1 (single isomer, unassigned) [Example 960] ; wanted: its IC50
1 to 100 µM

----------
target.entity: FGFR2 (Homo sapiens (Human), UniProt P21802)
Sequence (P21802 22-821): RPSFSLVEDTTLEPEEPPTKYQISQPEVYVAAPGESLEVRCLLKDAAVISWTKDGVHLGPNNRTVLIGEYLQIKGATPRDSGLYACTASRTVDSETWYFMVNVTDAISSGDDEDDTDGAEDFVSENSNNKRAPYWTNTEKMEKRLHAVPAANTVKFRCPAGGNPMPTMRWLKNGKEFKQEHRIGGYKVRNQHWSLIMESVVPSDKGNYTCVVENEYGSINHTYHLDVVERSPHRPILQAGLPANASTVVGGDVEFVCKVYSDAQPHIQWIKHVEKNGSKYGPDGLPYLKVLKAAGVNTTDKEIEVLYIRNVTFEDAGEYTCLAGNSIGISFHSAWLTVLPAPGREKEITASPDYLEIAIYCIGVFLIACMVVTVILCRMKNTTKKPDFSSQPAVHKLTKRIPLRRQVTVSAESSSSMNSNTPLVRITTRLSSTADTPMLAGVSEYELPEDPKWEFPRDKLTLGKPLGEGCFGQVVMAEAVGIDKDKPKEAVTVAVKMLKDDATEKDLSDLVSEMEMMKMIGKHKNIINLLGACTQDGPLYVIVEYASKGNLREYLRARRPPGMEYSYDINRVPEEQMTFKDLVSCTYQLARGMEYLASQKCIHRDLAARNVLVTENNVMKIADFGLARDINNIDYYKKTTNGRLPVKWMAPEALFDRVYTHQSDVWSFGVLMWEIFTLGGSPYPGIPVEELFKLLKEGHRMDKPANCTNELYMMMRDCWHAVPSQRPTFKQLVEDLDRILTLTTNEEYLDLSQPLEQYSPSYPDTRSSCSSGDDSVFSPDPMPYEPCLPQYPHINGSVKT
test.details: FGFR2 Biochemical Caliper Assay
pIC50: −log10 of the molar value.
In this section, each of the molecules is paired with its reported pIC50.

Consider the reported pIC50 for these molecules:
| molecule | pIC50 |
| --- | --- |
| C=C(C)C(=O)Nc1ccc(-c2c(-c3ccc(Oc4nccc(C)n4)c(F)c3)c3c(N)ncnc3n2CCO)cc1 | > 7.00 |
| C=C(C)C(=O)Nc1ccc(-c2c(-c3ccc4c(c3)CCC(=O)N4)c3c(N)ncnc3n2C)cc1 | 4.00 to 6.00 |
| CN(C)C/C=C/C(=O)Nc1ccc(-c2c(-c3ccc(C(=O)N4CCCC4)cc3)c3c(N)ncnc3n2C)cc1 | > 7.00 |
| C=C(C)C(=O)Nc1ccc(-c2c(-c3ccc(C(=O)N[C@@H](CO)C4CC4)cc3)c3c(N)ncnc3n2C)cc1 | > 7.00 |
| C=CC(=O)N1CCC(c2c(-c3ccc(C(=O)N4CCC(F)(F)C4)cc3)c3c(N)ncnc3n2C)C1 (stereo not shown) | 6.00 to 6.60 |
| C=C(C)C(=O)Nc1ccc(-c2c(-c3ccc(C(=O)N(CCN)CC(F)(F)F)cc3)c3c(N)ncnc3n2C)cc1 | 6.00 to 6.60 |
| C=C(C)C(=O)Nc1ccc(-c2c(C3=CCC(Oc4ncc(F)cn4)CC3)c3c(N)ncnc3n2C)cc1 (stereo not shown) | 6.60 to 7.00 |
| C=C(C)C(=O)Nc1ccc(-c2c(-c3ccc(N(C)C)nc3)c3c(N)ncnc3n2C)cc1 | 4.00 to 6.00 |

# input molecule: "C=C(CN1CCOCC1)C(=O)N1CCC(n2cc(-c3c(-c4ccc(Oc5cccc(C)n5)cc4)c4c(N)ncnc4n3C)cn2)CC1" ; wanted: its pIC50
6.00 to 6.60

# input molecule: "C=C(C)C(=O)Nc1ccc(-c2c(-c3ccc(Oc4ncc(OC)cn4)c(F)c3)c3c(N)ncnc3n2C)cc1" ; wanted: its pIC50
6.00 to 6.60

# input molecule: C=C(C)C(=O)Nc1ccc(-c2c(-c3ccc(C(=O)N4CCCC4)cc3)c3c(N)ncnc3n2C)c(CC)c1 [Example 517] ; wanted: its pIC50
6.00 to 6.60

# input molecule: "C=C(C)C(=O)Nc1ccc(-c2c(-c3ccc(C(=O)NCC(C)(C)O)cc3)c3c(N)ncnc3n2C)cc1" ; wanted: its pIC50
> 7.00

# input molecule: "C=C(C)C(=O)Nc1ccc(-c2c(-c3ccc(S(=O)(=O)C4CCCC4)cc3)c3c(N)ncnc3n2C)cc1" ; wanted: its pIC50
> 7.00

# input molecule: "C=C(C)C(=O)Nc1ccc(-c2c(-c3ccc(C(=O)N(C)Cc4nc(C)no4)cc3)c3c(N)ncnc3n2C)c(F)c1" ; wanted: its pIC50
> 7.00

# input molecule: C=CC(=O)N1CCC(c2c(-c3ccc(C4CCOCC4)cc3)c3c(N)ncnc3n2C)C1 (stereo not shown) ; wanted: its pIC50
6.00 to 6.60

# input molecule: C=C(C)C(=O)Nc1ccc(-c2c(-c3ccc(C(=O)NC4CC(CO)C4)cc3)c3c(N)ncnc3n2C)cc1 (stereo not shown) ; wanted: its pIC50
6.60 to 7.00
